conditions: mouse, serum
Numbered stars: 1 amine (or outer) side, 2 acyl side, 3 side chain; on linkers, the order of the positions; unused ones are H or OH. Square brackets hold non-standard residues; d marks the D form. Peptide text beside a SMILES is read from it. X1 = O=C(CC(N[*:1])c1cccc2ccccc12)[*:2]
ENDPOINT_NAME: half-life

Prompt: Quick one: give measured half-life for N=C(N)NCCC[C@@H]1NC(=O)[C@H]2CCCN2C(=O)[C@@H]2CCCN2C(=O)[C@H](CCCNC(=N)N)NC(=O)CC(c2cccc3ccccc23)NC(=O)[C@H](Cc2ccccc2)NC(=O)[C@H](CC(=O)O)NC(=O)[C@H](CC(=O)O)NC(=O)[C@H](Cc2ccccc2)NC(=O)CC(c2cccc3ccccc23)NC1=O (stereo partly shown) [Compound 18, Cyclo(1,10)PpR(Anapa)FDDF(Anapa)R] (cyclo(P[dP]R[X1]FDDF[X1]R))
Completion: > 48 h

----------
We begin with a simple list: items and their reported IC50.
test system: SKBR-3 HER2-overexpressing breast cancer cells; settings: read-out: IC50 SKBR-3 (+); antiproliferative activity, HER2-positive breast cancer cells, Table 3
Numbered stars: 1 amine (or outer) side, 2 acyl side, 3 side chain; on linkers, the order of the positions; unused ones are H or OH. Square brackets hold non-standard residues; d marks the D form. Peptide text beside a SMILES is read from it. X1 = O=C(CC(N[*:1])c1cccc2ccccc12)[*:2]
Report only the number, with the unit nM understood.

N=C(N)NCCC[C@H](N)C(=O)NC(CC(=O)N[C@@H](Cc1ccccc1)C(=O)O)c1cccc2ccccc12 (some centres unmarked) | 396

Here is another compound to look at.
Prompt: Quick one: give measured IC50 for N=C(N)NCCC[C@@H]1NC(=O)[C@H]2CCCN2C(=O)[C@@H]2CCCN2C(=O)[C@H](CCCNC(=N)N)NC(=O)CC(c2cccc3ccccc23)NC(=O)[C@H](Cc2ccccc2)NC(=O)[C@H](CC(=O)O)NC(=O)[C@H](CC(=O)O)NC(=O)[C@H](Cc2ccccc2)NC(=O)CC(c2cccc3ccccc23)NC1=O (some centres unmarked) [Compound 18, Cyclo(1,10)PpR(Anapa)FDDF(Anapa)R] (cyclo(P[dP]R[X1]FDDF[X1]R))
Completion: 194

----------
IC50, Calu-3 HER2-overexpressing lung cancer cells: measured values
Report only the number, with the unit µM understood.

N=C(N)NCCC[C@@H]1NC(=O)[C@H]2CCCN2C(=O)[C@@H]2CCCN2C(=O)[C@H](CCCCN)NC(=O)C[C@H](c2cccc3ccccc23)NC(=O)[C@H](Cc2ccccc2)NC(=O)[C@H](CC(=O)O)NC(=O)[C@H](CC(=O)O)NC(=O)[C@H](Cc2ccccc2)NC(=O)C[C@H](c2cccc3ccccc23)NC1=O [Compound 33, Cyclo(PpR-(R)Anapa-FDDF-(R)Anapa-K] | 0.9

Here is another compound to look at.
Prompt: Recall the reported IC50 of CC(=O)N[C@H](Cc1ccccc1)C(=O)NC(CC(=O)N[C@H](CCCNC(=N)N)C(N)=O)c1cccc2ccccc12 (some centres unmarked) when tested on Calu-3 HER2-overexpressing lung cancer cells.
Completion: 1.09

----------
test system: SKBR-3 HER2-overexpressing breast cancer cells
ENDPOINT_NAME: IC50
Note to self: number, then unit, no commentary.

N=C(N)NCCC[C@@H]1NC(=O)[C@H]2CCCN2C(=O)[C@@H]2CCCN2C(=O)[C@H](CCCCN)NC(=O)C[C@H](c2cccc3ccccc23)NC(=O)[C@H](Cc2ccccc2)NC(=O)[C@H](CC(=O)O)NC(=O)[C@H](CC(=O)O)NC(=O)[C@H](Cc2ccccc2)NC(=O)C[C@H](c2cccc3ccccc23)NC1=O [Compound 33, Cyclo(PpR-(R)Anapa-FDDF-(R)Anapa-K] | 500 nM

Here is another compound to look at.
Prompt: Quick one: give measured IC50 for CC(=O)N[C@H](Cc1ccccc1)C(=O)NC(CC(=O)N[C@H](CCCNC(=N)N)C(N)=O)c1cccc2ccccc12 (some centres unmarked)
Completion: 373 nM
